target: PKCε (Homo sapiens)
Sequence (Q02156 whole entry): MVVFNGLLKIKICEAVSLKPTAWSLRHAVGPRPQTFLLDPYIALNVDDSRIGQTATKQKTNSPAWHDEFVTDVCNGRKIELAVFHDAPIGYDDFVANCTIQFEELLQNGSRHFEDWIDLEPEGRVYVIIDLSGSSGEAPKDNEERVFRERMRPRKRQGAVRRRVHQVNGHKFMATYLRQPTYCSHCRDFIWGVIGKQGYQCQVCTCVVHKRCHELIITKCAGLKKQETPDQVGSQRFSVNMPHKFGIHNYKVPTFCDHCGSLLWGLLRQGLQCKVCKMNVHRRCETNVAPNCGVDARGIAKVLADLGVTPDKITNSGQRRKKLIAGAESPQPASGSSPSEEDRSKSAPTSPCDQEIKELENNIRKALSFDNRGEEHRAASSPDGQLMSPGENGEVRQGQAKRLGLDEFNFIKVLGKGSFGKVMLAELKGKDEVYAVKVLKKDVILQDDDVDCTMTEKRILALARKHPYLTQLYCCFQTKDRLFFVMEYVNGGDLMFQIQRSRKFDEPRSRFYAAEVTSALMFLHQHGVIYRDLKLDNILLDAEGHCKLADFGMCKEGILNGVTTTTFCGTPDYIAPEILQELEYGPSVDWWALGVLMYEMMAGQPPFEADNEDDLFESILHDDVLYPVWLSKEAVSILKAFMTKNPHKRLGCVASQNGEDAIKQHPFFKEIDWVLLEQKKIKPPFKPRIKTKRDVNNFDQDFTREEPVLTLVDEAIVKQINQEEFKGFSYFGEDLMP
Observable: Kd (µM)
API: value field is a number in µM; no unit string.

Report Kd, nothing else, for this molecule: COc1cccc2c1C(=O)c1c(O)c3c(c(O)c1C2=O)C[C@@](O)(C(=O)CO)C[C@@H]3O[C@H]1C[C@H](N)[C@H](O)[C@H](C)O1 [Dox, Doxorubicin]
44.8
